Target: T1, corticotropin releasing factor 2 receptor
T1 sequence (Q13324 whole entry, species assumed, looked up): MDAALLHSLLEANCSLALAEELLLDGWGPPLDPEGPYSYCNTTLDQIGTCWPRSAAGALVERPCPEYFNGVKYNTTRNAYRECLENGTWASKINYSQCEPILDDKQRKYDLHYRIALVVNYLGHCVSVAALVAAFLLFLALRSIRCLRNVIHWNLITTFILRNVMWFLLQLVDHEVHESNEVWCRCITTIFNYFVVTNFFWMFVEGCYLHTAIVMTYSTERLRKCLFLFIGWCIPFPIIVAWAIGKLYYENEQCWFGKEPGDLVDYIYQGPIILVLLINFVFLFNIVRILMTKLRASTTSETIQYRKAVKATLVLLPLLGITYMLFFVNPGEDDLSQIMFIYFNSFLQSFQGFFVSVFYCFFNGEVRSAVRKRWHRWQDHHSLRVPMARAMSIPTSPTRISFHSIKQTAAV
Test: cell-based or functional assay

{"binder": "ZGPPISIDLPYQLLRKMIEIEKQEKEKQQAANNARLLAR (C-terminal amide) [SEQ ID NO 287]", "CRF2R EC50 / nM": 11.3}
{"binder": "ZGPPISIDLPFQLLRKVIEIEKQEKEKQQAANNAKLLAKI (C-terminal amide) [SEQ ID NO 274]", "CRF2R EC50 / nM": 13.8}
{"binder": "ZGPPISIDLPFQLLREVIEIEKQEKEKQQAANNALLLATI (C-terminal amide) [SEQ ID NO 359]", "CRF2R EC50 / nM": 23.1}
{"binder": "ZGPPISIDLPLQLLEKMIEIEKQEKEKQQAANNALLLATI (C-terminal amide) [SEQ ID NO 249]", "CRF2R EC50 / nM": 12.2}
{"binder": "ZGPPISIDVPYWLLRKVIEIEKQEKEKQQAANNARLLDTI (C-terminal amide) [SEQ ID NO 372]", "CRF2R EC50 / nM": 14.2}
{"binder": "ZGPPISIDLPFQLLRKVIEIEKQEKEKQQATTNARLLDRV (C-terminal amide) [SEQ ID NO 351]", "CRF2R EC50 / nM": 12.9}

Sourced from patent US20030148956A1
